# Experimental Target: human Claudin18.2 (human)
# Method Notes: cell-based or functional assay
Criterion: CDC EC50 strictly under 0.1 µg/mL. Met: Criterion met. Not met: Criterion not met.

Use these answered entries as a reference point.
chimeric 273C10E5 (antibody, human IgG1, kappa, V domains shown, chimeric, human IgG1/kappa constant regions) VH: QVQLQQSGAELVKPGASVKLSCKASGYTFTSFGINWLRQRPEQGLEWIGWIFPGDGNSKYNENFKGKATLTTDKSSSTAYMQVTRLTSEDSAVYFCARFYYGNSFANWGQGTLVTVSA VL: DIVMTQSPSSLTVTAGEKVTMSCKSSQSLLNSGNQKNYLTWYQQKPGQPPKLLIYWAATRESGVPDRFAGSGSGTDFTLTISSVQAEDLAVYYCQNDYFYPFTFGAGTKLELKR: Criterion not met
chimeric 429H6C5 (antibody, human IgG1, kappa, V domains shown, chimeric, human IgG1/kappa constant regions) VH: DVQLVESGGGLVQPGGSRKLSCAASGFTFSSFGMHWVRQAPEKELEWVAYISSGSSTIYYAHTVKGRFTISRDNPKNTLFLRMTSLGSEDTAMYYCVRFYYGNSFVNWGQGTLVTVSA VL: DIVMTQSPSSLTATAGEKVTMSCKSSQSLLNSGNQKNYLTWYQQKPGQPPKMLIYWASTRESGVPDRFAGSGSGTDFTLTISSVQAEDLAVYYCQNAYIYPLTFGAGTRLELKR: Criterion met

Lookup: Lab note: confirm whether the reported CDC EC50 for this binder is below 0.1 µg/mL, equality not counting. binder: chimeric 265E6G2 (antibody, human IgG1, kappa, V domains shown, chimeric, human IgG1/kappa constant regions) VH: QAYLQQSGAELVRSGASVKMSCKASGYTFTSYNMHWVKQTPGQGLEWIGYIYPGNGGTNYNQKFKGKATLTADTSSSTAYMQISSLTSEDSAVYFCARDYYGNSFAYWGQGTLVTVSA VL: DLVMTQSPSSLTVTAGEKVTMSCKSSQSLLNSGNQKNYLTWYQQKPGQPPKLLIYWASTRESGVPDRFTGSGSGTDFTLTISNIQAEDLAVYYCQNDYSYPLPFGAGTKLELRR
Found: Criterion not met
